# Tested on: Escherichia coli
# assay.protocol: Antibacterial activity against Escherichia coli ATCC 25922 after 18 to 24 hrs by CLSI M100-S11 method
# Format: functional
Note to self: MIC under 20 µg/mL means YES, ties and anything higher get NO.

Inquiry: Does the reported MIC of the following compound sit strictly below 20 µg/mL? Nc1nc(-n2cc(C(=O)O)c(=O)c3cc(F)c(N4CC/C(=N\OCc5ccccc5)C(O)C4)nc32)c(F)cc1F (centres undefined)
Reply text: YES

Inquiry: Strictly below 20 µg/mL: is that where MIC of CC1(CN)CN(c2nc3c(cc2F)c(=O)c(C(=O)O)cn3-c2nc(N)c(F)cc2F)C/C1=N\OCc1ccccc1 (centres undefined) sits?
Reply text: YES

Inquiry: Lab note: confirm whether the reported MIC for this compound is below 20 µg/mL, equality not counting. compound: Nc1nc(-n2cc(C(=O)O)c(=O)c3cc(F)c(N4CC/C(=N\OCc5ccccc5)C(N)C4)nc32)c(F)cc1F (centres undefined)
Reply text: NO

Inquiry: Does the reported MIC of the following compound sit strictly below 20 µg/mL? CCO/N=C1\CN(c2nc3c(cc2F)c(=O)c(C(=O)O)cn3-c2nc(N)c(F)cc2F)[C@H]1CN
Reply text: YES

Inquiry: # TODO verify MIC < 20 µg/mL strictly for this compound: CO/N=C1\CCN(c2nc3c(cc2F)c(=O)c(C(=O)O)cn3-c2nc(N)c(F)cc2F)CC1O (centres undefined)
Reply text: NO

Inquiry: is_below(MIC, 20 µg/mL) for C[C@H]1COc2c(N3CCN(C)CC3)c(F)cc3c(=O)c(C(=O)O)cn1c23.C[C@H]1COc2c(N3CCN(C)CC3)c(F)cc3c(=O)c(C(=O)O)cn1c23.O [LEVOFLOXACIN] ?
Reply text: YES

Inquiry: Hello, I'm reviewing records and need to know if MIC of CCO/N=C1\CN(c2nc3c(cc2F)c(=O)c(C(=O)O)cn3-c2nc(N)c(F)cc2F)[C@@H]1CN is below 20 µg/mL. Could you check?
Reply text: YES

Inquiry: Quick check: MIC of CO/N=C1\CN(c2nc3c(cc2F)c(=O)c(C(=O)O)cn3-c2nc(N)c(F)cc2F)[C@H]1CN under 20 µg/mL?
Reply text: YES

Inquiry: I'd appreciate it if you could check whether NC[C@H]1/C(=N/OCc2ccccc2)CN1c1nc2c(cc1F)c(=O)c(C(=O)O)cn2-c1nc(N)c(F)cc1F has MIC smaller than 20 µg/mL.
Reply text: YES

* * *

# System: Enterococcus faecalis
# assay.protocol: Antibacterial activity against Enterococcus faecalis 14-3 after 18 to 24 hrs by CLSI M100-S11 method
# Assay type: functional
quantity.kind: MIC

Inquiry: Item under review: CCO/N=C1\CN(c2nc3c(cc2F)c(=O)c(C(=O)O)cn3-c2nc(N)c(F)cc2F)CC1CN (centres undefined) . Reported MIC?
Reply text: 32 µg/mL

Inquiry: Return reported MIC; argument: Nc1nc(-n2cc(C(=O)O)c(=O)c3cc(F)c(N4CC/C(=N\OCc5ccccc5)C(O)C4)nc32)c(F)cc1F (centres undefined)
Reply text: > 128 µg/mL

Inquiry: Item under review: CO/N=C1\CCN(c2nc3c(cc2F)c(=O)c(C(=O)O)cn3-c2nc(N)c(F)cc2F)CC1N (centres undefined) . Reported MIC?
Reply text: > 128 µg/mL

Inquiry: # lookup: MIC of NC[C@H]1/C(=N/OCc2ccccc2)CN1c1nc2c(cc1F)c(=O)c(C(=O)O)cn2-c1nc(N)c(F)cc1F
Reply text: > 128 µg/mL

Inquiry: Would you mind telling me what MIC value was observed for C[C@H]1COc2c(N3CCN(C)CC3)c(F)cc3c(=O)c(C(=O)O)cn1c23.C[C@H]1COc2c(N3CCN(C)CC3)c(F)cc3c(=O)c(C(=O)O)cn1c23.O ?
Reply text: 64 µg/mL

Inquiry: Query (molecule): CO/N=C1\CN(c2nc3c(cc2F)c(=O)c(C(=O)O)cn3-c2nc(N)c(F)cc2F)[C@@H]1CN ; field requested: MIC
Reply text: > 128 µg/mL

Inquiry: Quick one: MIC for CCO/N=C1\CN(c2nc3c(cc2F)c(=O)c(C(=O)O)cn3-c2nc(N)c(F)cc2F)[C@@H]1CN ?
Reply text: > 128 µg/mL

Inquiry: Fill in: MIC of CC1(CN)CN(c2nc3c(cc2F)c(=O)c(C(=O)O)cn3-c2nc(N)c(F)cc2F)C/C1=N\OCc1ccccc1 (centres undefined) is ___
Reply text: > 128 µg/mL

Inquiry: Consider the molecule CO/N=C1\CN(c2nc3c(cc2F)c(=O)c(C(=O)O)cn3-c2nc(N)c(F)cc2F)[C@H]1CN and give its measured MIC.
Reply text: > 128 µg/mL

* * *

# System: Staphylococcus epidermidis
# assay.protocol: Antibacterial activity against methicillin-resistant Staphylococcus epidermidis 14-22 after 18 to 24 hrs by CLSI M100-S11 method
# Format: functional
quantity.kind: MIC (µg/mL)
Enter your answer as a number in µg/mL; do not include the unit.

Inquiry: Could you tell me which MIC is on file for CC1(CN)CN(c2nc3c(cc2F)c(=O)c(C(=O)O)cn3-c2nc(N)c(F)cc2F)C/C1=N\OCc1ccccc1 (stereo not given) ?
Reply text: 64

Inquiry: Given the compound CO/N=C1\CN(c2nc3c(cc2F)c(=O)c(C(=O)O)cn3-c2nc(N)c(F)cc2F)CC1CN (stereo not given) , what is its reported MIC?
Reply text: 64

Inquiry: Param item = CO/N=C1\CN(c2c(F)cc3c(=O)c(C(=O)O)cn(-c4nc(N)c(F)cc4F)c3c2Cl)CC1CN (stereo not given) ; retrieve measured MIC.
Reply text: 64

Inquiry: Find the recorded MIC belonging to CCO/N=C1\CN(c2nc3c(cc2F)c(=O)c(C(=O)O)cn3-c2nc(N)c(F)cc2F)CC1CN (stereo not given) and report it.
Reply text: 32

Inquiry: Entry NCC1CN(c2nc3c(cc2F)c(=O)c(C(=O)O)cn3-c2nc(N)c(F)cc2F)C/C1=N\OCc1ccccc1 (stereo not given) : reported MIC = ?
Reply text: 16

* * *

# Test system: Staphylococcus aureus
# assay.protocol: Antibacterial activity against Staphylococcus aureus CMCC 26003 after 18 to 24 hrs by CLSI M100-S11 method
# Type: functional
quantity.kind: MIC
Report as: number unit

Inquiry: Quick check: MIC of NC[C@@H]1/C(=N/OCc2ccccc2)CN1c1nc2c(cc1F)c(=O)c(C(=O)O)cn2-c1nc(N)c(F)cc1F ?
Reply text: 4 µg/mL

Inquiry: MIC lookup needed for CO/N=C1\CN(c2nc3c(cc2F)c(=O)c(C(=O)O)cn3-c2nc(N)c(F)cc2F)CC1CN (centres undefined) , thanks.
Reply text: 0.5 µg/mL

Inquiry: Which value of MIC has been reported for CC1(CN)CN(c2nc3c(cc2F)c(=O)c(C(=O)O)cn3-c2nc(N)c(F)cc2F)C/C1=N\OCc1ccccc1 (centres undefined) in the records?
Reply text: 0.25 µg/mL

Inquiry: Any idea what MIC was measured for CO/N=C1\CN(c2nc3c(cc2F)c(=O)c(C(=O)O)cn3-c2nc(N)c(F)cc2F)[C@@H]1CN ?
Reply text: 16 µg/mL

* * *

# Test system: Staphylococcus epidermidis
# assay.protocol: Antibacterial activity against methicillin-sensitive Staphylococcus epidermidis 14-6 after 18 to 24 hrs by CLSI M100-S11 method
# Assay type: functional
Would you mind telling me the reported MIC of each entry?

Inquiry: If you can, please state the reported MIC value of CO/N=C1\CN(c2nc3c(cc2F)c(=O)c(C(=O)O)cn3-c2nc(N)c(F)cc2F)[C@@H]1CN .
Reply text: > 128 µg/mL

Inquiry: Item under review: NC[C@H]1/C(=N/OCc2ccccc2)CN1c1nc2c(cc1F)c(=O)c(C(=O)O)cn2-c1nc(N)c(F)cc1F . Reported MIC?
Reply text: > 128 µg/mL

Inquiry: Which value of MIC has been reported for CO/N=C1\CN(c2c(F)cc3c(=O)c(C(=O)O)cn(-c4nc(N)c(F)cc4F)c3c2Cl)CC1CN (configuration not stated) in the records?
Reply text: 64 µg/mL

Inquiry: Param item = CO/N=C1\CCN(c2nc3c(cc2F)c(=O)c(C(=O)O)cn3-c2nc(N)c(F)cc2F)CC1O (configuration not stated) ; retrieve measured MIC.
Reply text: > 128 µg/mL

Inquiry: Dear colleague, I am looking for the recorded MIC of the following molecule: CO/N=C1\CCN(c2c(F)cc3c(=O)c(C(=O)O)cn(-c4nc(N)c(F)cc4F)c3c2Cl)CC1N (configuration not stated)
Reply text: 128 µg/mL

Inquiry: Fill in: MIC of CC1(CN)CN(c2nc3c(cc2F)c(=O)c(C(=O)O)cn3-c2nc(N)c(F)cc2F)C/C1=N\OCc1ccccc1 (configuration not stated) is ___
Reply text: > 128 µg/mL

Inquiry: Endpoint output: MIC of Nc1nc(-n2cc(C(=O)O)c(=O)c3cc(F)c(N4CC/C(=N\OCc5ccccc5)C(N)C4)nc32)c(F)cc1F (configuration not stated) . Value?
Reply text: > 128 µg/mL

Inquiry: // lookup MIC for NC[C@@H]1/C(=N/OCc2ccccc2)CN1c1nc2c(cc1F)c(=O)c(C(=O)O)cn2-c1nc(N)c(F)cc1F
Reply text: > 128 µg/mL

Inquiry: Need MIC of CO/N=C1\CN(c2nc3c(cc2F)c(=O)c(C(=O)O)cn3-c2nc(N)c(F)cc2F)CC1CN (configuration not stated) , thanks.
Reply text: 64 µg/mL

Inquiry: Return reported MIC; argument: NCC1CN(c2nc3c(cc2F)c(=O)c(C(=O)O)cn3-c2nc(N)c(F)cc2F)C/C1=N\OCc1ccccc1 (configuration not stated)
Reply text: 32 µg/mL

Inquiry: Report MIC for C[C@H]1COc2c(N3CCN(C)CC3)c(F)cc3c(=O)c(C(=O)O)cn1c23.C[C@H]1COc2c(N3CCN(C)CC3)c(F)cc3c(=O)c(C(=O)O)cn1c23.O please.
Reply text: 2 µg/mL

Inquiry: Sample CCO/N=C1\CN(c2nc3c(cc2F)c(=O)c(C(=O)O)cn3-c2nc(N)c(F)cc2F)[C@H]1CN — what was its MIC?
Reply text: 128 µg/mL

Inquiry: Entry under review: CO/N=C1\CN(c2nc3c(cc2F)c(=O)c(C(=O)O)cn3-c2nc(N)c(F)cc2F)[C@H]1CN . Reported MIC?
Reply text: 64 µg/mL

Inquiry: So what's the measured MIC for this one? CCO/N=C1\CN(c2nc3c(cc2F)c(=O)c(C(=O)O)cn3-c2nc(N)c(F)cc2F)[C@@H]1CN
Reply text: > 128 µg/mL

Inquiry: If you can, please state the reported MIC value of CO/N=C1\CCN(c2nc3c(cc2F)c(=O)c(C(=O)O)cn3-c2nc(N)c(F)cc2F)CC1N (configuration not stated) .
Reply text: > 128 µg/mL

Inquiry: Reported MIC for Nc1nc(-n2cc(C(=O)O)c(=O)c3cc(F)c(N4CC/C(=N\OCc5ccccc5)C(O)C4)nc32)c(F)cc1F (configuration not stated) : what is it?
Reply text: > 128 µg/mL

Inquiry: Using the record for CCO/N=C1\CN(c2nc3c(cc2F)c(=O)c(C(=O)O)cn3-c2nc(N)c(F)cc2F)CC1CN (configuration not stated) , report its MIC.
Reply text: 32 µg/mL

Where do the numbers come from? From ChEMBL document CHEMBL3797178.
